Value source: PubChem BioAssay (NCI)

# Tested on: OVCAR-5 ovarian
# test.summary: NCI-60 one-dose screen, 48 h (100 = growth as untreated, 0 = no growth, -100 = all killed)
# assay.context: 10 µM unless noted
Compounds without any hit were thinned out: in the full panel of roughly 83,000, 20% have a hit.
Provide the recorded growth for the entries that follow.
One number for each entry, in %.

Some solved entries appear below for comparison.
INPUT: Find the measured growth: item CCOC(=O)C1=C(N)Oc2c(sc3c(F)cccc23)C1c1ccc(O)cc1 (centres undefined) , target or system OVCAR-5 ovarian.
OUTPUT: 92.4

INPUT: What do we get for CCC1=C[C@@H]2C[C@]3(C(=O)OC)c4[nH]c5ccccc5c4CC[N@+](CC(=O)Nc4cc5c(cc4OC)N(C)[C@H]4[C@@](O)(C(=O)OC)[C@H](OC(C)=O)[C@]6(CC)C=CCN7CC[C@]54[C@@H]76)(C2)[C@H]13 ?
OUTPUT: 109

INPUT: What do we get for N#Cc1nc(-c2ccc(F)cc2)oc1S(=O)(=O)N1CCOCC1 ?
OUTPUT: 101

INPUT: What do we get for OB1OCc2cc(/C=C/c3cccc(C(F)(F)F)c3)ccc21 ?
OUTPUT: 37.6

INPUT: What do we get for C#CCOc1cccc(Nc2ncnc3cc(NC(=O)C=C)ccc23)c1 ?
OUTPUT: 54.3

INPUT: What do we get for C#CCOC(=O)/C=C/c1cn(-c2ccccc2)nc1-c1ccc(OC)cc1 ?
OUTPUT: 91

INPUT: What do we get for CN(C)c1ccc(C(=O)OCCCCCCl)cc1 ?
OUTPUT: 75.6

INPUT: What do we get for C=C1C(=O)O[C@H]2[C@H]1CC/C(COC(=O)c1cc3ccccc3s1)=C\CC[C@@]1(C)O[C@@H]21 ?
OUTPUT: -57.3

INPUT: What do we get for Cc1ccc(-c2nc(N3CCCNCC3)c3oc(-c4ccccc4)nc3n2)cc1 ?
OUTPUT: -87.3

INPUT: What do we get for Cc1c2cnccc2c(C)c2c1c1cc(C#N)ccc1n2C ?
OUTPUT: -15

Kindly give each listed record's growth.
1. CCOC(=O)Cc1cnc(N/N=C(\C)c2cc3ccccc3o2)s1
2. Cc1sc2nc(NCCc3c[nH]c4ccc(Cl)cc34)[nH]c(=O)c2c1C
3. Nc1ncnc2c1C(c1ccccc1)c1ccc3ccccc3c1O2 (centres undefined)
4. Nc1nc(-c2ccc(Cl)cc2)nc2c1sc(=S)n2-c1ccccc1

OUTPUT:
1. 99.7
2. 62.5
3. 99
4. 62.6

###

# Test system: BT-549 breast
# test.summary: NCI-60 one-dose screen, 48 h
# assay.context: 10 µM unless noted
About 83,000 compounds went through this panel and 20% of them were active in at least one assay; those are over-represented in the sample as a whole. Calls of active or inactive are those of the source. The calls were made as follows: active = growth percent below 10; inactive = the rest.
Field 'call' accepts active, inactive

INPUT: Assay outcome for N#Cc1nc(-c2ccc(F)cc2)oc1S(=O)(=O)N1CCCCC1 : what was it?
OUTPUT: inactive

INPUT: What do we get for COc1ccc2[nH]c(C(=O)N3CCN(C(=O)OCc4ccc5c(Cl)cc(Cl)c(O)c5n4)CC3)cc2c1 ?
OUTPUT: active

INPUT: What do we get for O=C1/C(=C\c2ccc3nccnc3c2)SC(=S)N1CCc1ccc(O)cc1 ?
OUTPUT: inactive

INPUT: What do we get for Cc1sc2nc(NCCc3c[nH]c4ccc(Cl)cc34)[nH]c(=O)c2c1C ?
OUTPUT: inactive

Field: next compound
INPUT: Assay outcome for CCOC(=O)Cc1cnc(N/N=C(\C)c2cc3ccccc3o2)s1 : what was it?
OUTPUT: inactive

###

Provide the recorded growth for the entries that follow.
# Test system: NCI-H460 lung
# test.summary: NCI-60 one-dose screen, 48 h (100 = growth as untreated, 0 = no growth, -100 = all killed)
# assay.context: 10 µM unless noted
The panel holds about 83,000 compounds, 20% with a hit somewhere; the sample as a whole holds those more often. Activity calls are given as the source filed them. How the source made its calls: active means growth percent below 10; inactive means the rest.

INPUT: Find the measured growth: item CC(=O)Oc1ccc(N2C(=O)C(Cl)=C(Nc3cccc(C(F)(F)F)c3)C2=O)cc1 , target or system NCI-H460 lung.
OUTPUT: 102% (inactive)

INPUT: What do we get for C1CN(SSN2CCOCC2)CCO1 ?
OUTPUT: 10.8% [100 µM] (inactive)

INPUT: What do we get for COc1ccc(OC)c(Nc2nnc(-c3ccc(O)c(OC)c3)o2)c1 ?
OUTPUT: 82.8% (inactive)

INPUT: What do we get for O=C(Nc1ccccc1O)c1ccc(CNC(=O)c2sccc2Nc2ccnc(C(F)(F)F)c2)cc1 ?
OUTPUT: 42% (inactive)

INPUT: What do we get for CCOC(=O)C1=C(c2ccccc2)N=C2SC=C(c3ccc(Cl)cc3)N2C1c1ccc(Br)cc1 (stereo not given) ?
OUTPUT: 85% (inactive)

INPUT: What do we get for C[PH+](c1nc2ccccc2nc1[PH+](C)C(C)(C)C)C(C)(C)C.C[PH+](c1nc2ccccc2nc1[PH+](C)C(C)(C)C)C(C)(C)C.[Au+].[Cl-] (stereo not given) ?
OUTPUT: -85.5% (active)

INPUT: What do we get for N#Cc1nc(-c2ccc(F)cc2)oc1S(=O)(=O)N1CCOCC1 ?
OUTPUT: 107% (inactive)

INPUT: What do we get for O=C(CN1CCOCC1)Nc1nc(-c2cc3ccccc3oc2=O)cs1 ?
OUTPUT: 103% (inactive)

Kindly give each listed record's growth.
1. CCNCCNc1cc(-c2ccc(C(F)(F)F)cc2)c(C#N)c2nc3ccccc3n12
2. O=C1NC(=O)C(Cc2ccc(OCc3ccc(-c4ccc(Cl)cc4Cl)cc3)cc2)S1 (stereo not given)

OUTPUT:
["-81.4% (active)", "58.5% (inactive)"]

###

Provide the recorded growth for the entries that follow.
# Tested on: SF-539 CNS
# test.summary: NCI-60 one-dose screen, 48 h (100 = growth as untreated, 0 = no growth, -100 = all killed)
# assay.context: 10 µM unless noted
The panel holds about 83,000 compounds, 20% with a hit somewhere; the sample as a whole holds those more often.
Numbers only, in %.

Kindly give each listed record's growth.
1. CCOC(=O)n1cc(-c2nonc2-c2cn(C(=O)OCC)c3ccc(Br)cc23)c2ccccc21
2. COC(=O)c1c(C)nc(C)c2c1C(=O)C(Br)=C(NCc1ccccc1)C2=O
3. Nc1cc(C(=O)NC[C@H]2CN(c3ccc(N4CCC(C(=O)O)CC4)cc3)C(=O)O2)ccc1Cl
4. O=C(C[C@]1(O)C(=O)Nc2ccccc21)c1cccc(C(F)(F)F)c1
5. COc1c(B(O)O)cccc1-c1nc2c(F)cc3[nH]ncc3c2c2c1CCCC2

OUTPUT:
98.4
7.13
93.7
88
-28.3

Kindly give each listed record's growth.
1. O=C1c2ccc3c4c5ccc(c24)C(=O)N1CCCOCCCCOCCCNCc1ccc(cc1)CNCCCOCCCCOCCCN(C3=O)C5=O
2. CN1CCN(c2cc(Nc3cc(C4CC4)[nH]n3)nc(Nc3ccc(CC(=O)NCc4cccc(F)c4)cc3)n2)CC1
3. CCn1cc(C(=O)O)c(=O)c2cc(F)c(N3CCN(CC(=O)Nc4ccc(S(=O)(=O)Nc5nccc(C)n5)cc4)C(C)C3)c(F)c21 (stereo not drawn)

OUTPUT:
[-85.7, -22.9, 99.2]

###

# Tested on: CAKI-1 renal
# test.summary: NCI-60 one-dose screen, 48 h
# assay.context: 10 µM unless noted
The panel holds about 83,000 compounds, 20% with a hit somewhere; the sample as a whole holds those more often. Calls of active or inactive are those of the source. How the source made its calls: active means growth percent below 10; inactive means the rest.
Field 'call' accepts active, inactive

INPUT: Assay outcome for N#Cc1ccc(O)c(C2=NCC(c3cccc(Oc4ccccc4)c3)O2)c1 (stereo not given) : what was it?
OUTPUT: active

INPUT: What do we get for COc1cc2c(c(OC)c1OC)CCC(c1cccc(C(=O)Nc3ccc(C#N)cc3)c1)O2 (stereo not given) ?
OUTPUT: inactive

INPUT: What do we get for N#Cc1c(-c2ccc(Cl)cc2)c(C#N)c2c(C#N)c(N)nn2c1N ?
OUTPUT: inactive

INPUT: What do we get for O=C1/C(=C/c2ccc([N+](=O)[O-])cc2)COc2ccc(O)cc21 ?
OUTPUT: inactive

INPUT: What do we get for CCc1ccc(CCCC(=O)O)cc1 ?
OUTPUT: inactive

INPUT: What do we get for N#CC1=C(N)Oc2c(c(=O)[nH]c3ccc(Cl)cc23)C12C(=O)c1ccccc1C2=O ?
OUTPUT: inactive

INPUT: What do we get for COc1cc2c(cc1OCCCN1CCN(CCCOc3cc4c(cc3OC)C(=O)N3CC(F)(F)C[C@H]3C=N4)CC1)N=C[C@@H]1CC(F)(F)CN1C2=O ?
OUTPUT: inactive

INPUT: What do we get for CC(O)(c1ccccc1)C(c1ccccc1)C1CCCCN1 (stereo not given) ?
OUTPUT: inactive

INPUT: What do we get for Cc1ccc(C)n1-c1ccccc1-n1c(C)ccc1C ?
OUTPUT: inactive

INPUT: What do we get for CC/C(=C(/c1ccc(Cl)cc1)c1ccc(OCCN(C)C)cc1)c1ccc(Cl)cc1 ?
OUTPUT: inactive
